Reported microsomal CLint by item:
- method-description: in vitro
- Type: in vitro ADME, human
- conditions: human, microsomes
Unit µL/min/mg implied. Number only.

CC(=O)OCCN(C)CC(=O)OC(C)(C)C(=O)OCC(=O)O[C@]1(C)CC[C@@]2(C)[C@@H](CC[C@@H]3[C@@H]2CC[C@]2(C)[C@@H](C(C)=O)CC[C@@H]32)C1 = 982

Input CC(=O)[C@H]1CC[C@H]2[C@@H]3CC[C@H]4C[C@](C)(OC(=O)COC(=O)[C@@H](C)N5CCOCC5)CC[C@]4(C)[C@H]3CC[C@]12C . Output microsomal CLint: 96.9

Input CC(=O)[C@H]1CC[C@H]2[C@@H]3CC[C@H]4C[C@](C)(OC(=O)CN5CCOCC5)CC[C@]4(C)[C@H]3CC[C@]12C . Output microsomal CLint: 137

====

- method-description: in vitro
- Format: in vitro ADME, human
- conditions: human liver microsomes 0.5 mg/mL, with NADPH, compound 0.5 μM, 37° C.; read-out: Human Liver Microsomal Stability t1/2
- Description: For several compounds only human liver microsomal stability was tested. […] The microsomal assays were carried out with and without the addition of NADPH at a final concentration of 1 mM. For negative control samples, NADPH reagent was not added. […] Note that compounds undergo only Phase I metabolism in liver microsomes.
Reported half-life by item:
Form entry: enter the amount, then its unit.

Recorded results for 2 molecules are shown here.
CC(=O)[C@H]1CC[C@H]2[C@@H]3CC[C@H]4C[C@](C)(OC(=O)CC(C)(C)C(=O)OCCN(C)C)CC[C@]4(C)[C@H]3CC[C@]12C = 2.1 h
CC(=O)[C@H]1CC[C@H]2[C@@H]3CC[C@H]4C[C@](C)(OC(=O)COC(=O)OCCN(C)C)CC[C@]4(C)[C@H]3CC[C@]12C = 0.197 h

Shifting focus to the molecule that follows.
Input CNCC(=O)O[C@]1(C)CC[C@@]2(C)[C@@H](CC[C@@H]3[C@@H]2CC[C@]2(C)[C@@H](C(C)=O)CC[C@@H]32)C1 . Output half-life: 4.62 h

====

- method-description: in vitro
- Format: in vitro ADME, human
- conditions: human liver microsomes
attribute-measured: Comments: production of GNX (ganaxolone) in human liver microsomes

CC(=O)[C@H]1CC[C@H]2[C@@H]3CC[C@H]4C[C@](C)(OC(=O)CCCCN)CC[C@]4(C)[C@H]3CC[C@]12C [Compound 418] = In human no GNX produced
CC(=O)[C@H]1CC[C@H]2[C@@H]3CC[C@H]4C[C@](C)(OC(=O)CSC(C)(C)COC(=O)CN5CCOCC5)CC[C@]4(C)[C@H]3CC[C@]12C [Compound 310] = In human no GNX produced

====

- method-description: Stability in simulated gastric fluid (SGF)
- Assay type: in vitro ADME
- conditions: simulated gi fluid; SGF with pepsin pH 1.2, 37° C., 2 μg/mL; read-out: SGF t1/2
Give T when the value for half-life is at least 4 h. Give F when it is less.

CC(=O)[C@H]1CC[C@H]2[C@@H]3CC[C@H]4C[C@](C)(OC(=O)COC(=O)C(C)(C)OC(=O)CN(CCO)CCO)CC[C@]4(C)[C@H]3CC[C@]12C = T
COCCOCCOCC(=O)OCO[C@]1(C)CC[C@@]2(C)[C@@H](CC[C@@H]3[C@@H]2CC[C@]2(C)[C@@H](C(C)=O)CC[C@@H]32)C1 = F
CC(=O)[C@H]1CC[C@H]2[C@@H]3CC[C@H]4C[C@](C)(OC(=O)CNC(C)(C)C(=O)O)CC[C@]4(C)[C@H]3CC[C@]12C = T
CC(=O)[C@H]1CC[C@H]2[C@@H]3CC[C@H]4C[C@](C)(OC(=O)COC(=O)C(C)(C)N)CC[C@]4(C)[C@H]3CC[C@]12C = T
CC(=O)[C@H]1CC[C@H]2[C@@H]3CC[C@H]4C[C@](C)(OCOC(=O)CN5CCOCC5)CC[C@]4(C)[C@H]3CC[C@]12C = F

Attention now turns to another entry.
For this molecule, is measured half-life 4 h or higher? CC(=O)[C@H]1CC[C@H]2[C@@H]3CC[C@H]4C[C@](C)(OC(=O)CN)CC[C@]4(C)[C@H]3CC[C@]12C
T
